In this section we review reported log10 of ED50 values for a set of compounds.
Test system: Rattus norvegicus
Experiment: Antiallergic activity in iv dosed sensitized Sprague-Dawley rat assessed as inhibition of passive cutaneous anaphylaxis
Type: functional
Settings: read-out: ID50 (the source's name)
Scale: log10; quantity: ED50; unit before log: mg/kg

COc1c2c(=O)cc(C(=O)[O-])oc2cc2oc(C(=O)[O-])cc(=O)c12.[Na+].[Na+] | -0.49
COc1cc2oc(C(=O)[O-])cc(=O)c2c2oc(C(=O)[O-])cc(=O)c12.[Na+].[Na+] | -0.14
O=C([O-])c1cc(=O)c2cc3oc(C(=O)[O-])cc(=O)c3cc2o1.[Na+].[Na+] | -0.17
CCCc1c(OC)c2c(=O)cc(C(=O)[O-])oc2c2c(=O)cc(C(=O)[O-])oc12.[Na+].[Na+] | -0.74
CCOc1cc2oc(C(=O)[O-])cc(=O)c2c2oc(C(=O)[O-])cc(=O)c12.[Na+].[Na+] | -0.42
O=C([O-])c1cc(=O)c2cc3c(=O)cc(C(=O)[O-])oc3cc2o1.[Na+].[Na+] | -0.74
CCc1cc2c(=O)cc(C(=O)[O-])oc2c2c(=O)cc(C(=O)[O-])oc12.[Na+].[Na+] | 1.00
O=C([O-])c1cc(=O)c2c(ccc3c(=O)cc(C(=O)[O-])oc32)o1.[Na+].[Na+] | 0.88

Can you share its log10 of ED50? I mean this compound: CCCc1c2oc(C(=O)[O-])cc(=O)c2c(OC)c2c(=O)cc(C(=O)[O-])oc12.[Na+].[Na+]
-1.00

What value of log10 of ED50 has been recorded for this entry: C=CCc1c(OC)c2c(=O)cc(C(=O)[O-])oc2c2c(=O)cc(C(=O)[O-])oc12.[Na+].[Na+]
-0.66

Report log10 of ED50 for O=C([O-])c1cc(=O)c2cc3c(=O)cc(C(=O)[O-])oc3c([N+](=O)[O-])c2o1.[Na+].[Na+] please.
0.20

Given the entry Cc1cc(=O)oc2c1c1oc(C(=O)[O-])cc(=O)c1c1oc(C(=O)[O-])cc(=O)c21.[Na+].[Na+] , report its measured log10 of ED50.
0.63

// returns reported log10 of ED50 for input O=C([O-])c1cc(=O)c2c(cc(O)c3c(=O)cc(C(=O)[O-])oc32)o1.[Na+].[Na+]
0.70

Name the recorded log10 of ED50 for CCc1c2oc(C(=O)[O-])cc(=O)c2cc2c(=O)cc(C(=O)[O-])oc12.[Na+].[Na+] .
-1.00

Field request: log10 of ED50 | item: O=C([O-])c1cc(=O)c2c(OCC(O)COc3cccc4oc(C(=O)[O-])cc(=O)c34)cccc2o1.[Na+].[Na+] [CROMOLYN SODIUM]
0.08

Reported log10 of ED50 for CCCc1c2oc(C(=O)[O-])cc(=O)c2cc2c(=O)cc(C(=O)[O-])oc12.[Na+].[Na+] : what is it?
-1.30

Bench note: what log10 of ED50 did CCc1c2oc(C(=O)[O-])cc(=O)c2c(C)c2c(=O)cc(C(=O)[O-])oc12.[Na+].[Na+] show?
-1.52

What measured log10 of ED50 goes with CCCCc1c2oc(C(=O)[O-])cc(=O)c2cc2c(=O)cc(C(=O)[O-])oc12.[Na+].[Na+] ?
-1.30

# log10 of ED50 lookup, item CCOCc1c2oc(C(=O)[O-])cc(=O)c2cc2c(=O)cc(C(=O)[O-])oc12.[Na+].[Na+]
-0.48
